- target under test: Gag-Pol polyprotein [1148-1435] (Human immunodeficiency virus 1, UniProt P04585)

# smiles notation, output unit, IC50
rows = [
    ("COc1c2c(c(O)c3ncc(Cc4ccc(F)cc4)cc13)C(=O)N(C)C2", "nM", 100),
]
